// reported growth inhibition for each item listed
TEST_DESCRIPTION: NCI Yeast Anticancer Drug Screen. Data for the bub3 strain (AID 167)
TEST_CONTEXT: S. cerevisiae bub3 mutant strain, at 50.0 µM, active compounds read high
The panel holds about 79,000 compounds, 15% with a hit somewhere; the sample as a whole holds those more often.
MEASURE_NAME: growth inhibition (%)

INSERT INTO assay_data (molecule, assay_result) VALUES
  ('Cc1ccccc1NC(=O)Oc1ccc2c(C)cc(=O)oc2c1', 14.3),
  ('CC(=O)Oc1cc2c(cc1OC(C)=O)C(=O)c1cc3c(cc1C2=O)OCO3', -6.5),
  ('CCCCNC(=O)c1c(Cl)c(Cl)c(Cl)c(Cl)c1C(=O)O', 16.5),
  ('Cc1ccc(N=NC(=O)NNc2ccc(C)c([N+](=O)[O-])c2)cc1[N+](=O)[O-]', 6.45),
  ('CC(=O)Nc1c(C)ncn(-c2ccccc2)c1=O', -2.75),
  ('O=S(=O)(N/N=C/c1ccc(/C=N/NS(=O)(=O)c2ccccc2)cc1)c1ccccc1', -7.95),
  ('Nc1cc(C(=O)O)ccc1Cl', -12.2),
  ('CC(=O)OC1CC(n2cc(C)c(=O)[nH]c2=O)OC1COP(=O)(N1CC1)N1CC1 (stereo not given)', -22.6),
  ('Cc1cccc(C(O)c2ccccn2)c1O (stereo not given)', -3.8),
  ('CCC1(C)C=Cc2c(cc(OC)c3c(=O)c4ccccc4n(C)c23)O1 (stereo not given)', 4.05),
  ('CCC12CC(=O)CCC1CCc1ccc(OC)c(OC)c12 (stereo not given)', 18.4),
  ('O=C(/C=C\c1ccccc1)OC(c1ccccc1)c1ccc(Br)cc1 (stereo not given)', -3.4),
  ('Cc1cc(CO)c(O)c(CN(CC(=O)O)CC(=O)O)c1', 21.6),
  ('COc1cc(C(C)S(=O)(=O)c2ccc(C)cc2)ccc1O (stereo not given)', 3.2),
  ('O=C1C2=Cc3ccccc3OC2(O)Oc2ccc(O)cc21 (stereo not given)', -38.6),
  ('CC1C(=O)C23CC1CCC2C12COC(O)C1C(C)(C)C(O)CC2OC3=O (stereo not given)', -43.6),
  ('C=CCCCCCCCCCCCCCCCCCC', -5.3),
  ('NC(Cc1ccccc1)=NCC(=O)O', -19.7),
  ('O=c1[nH]c(=O)n(COCc2ccccc2)c2ccc(Br)cc12', -6.95),
  ('O=C1CS[C@@H]2C(=O)CCCC2C1 (stereo not given in full)', -3.4),
  ('CO[Si](C)(OC)c1ccccc1', -25.8),
  ('CC(CCC(=O)O)(CCC(=O)O)[N+](=O)[O-]', 12.6),
  ('Cc1cc(=O)[nH]c2ccc(Cc3ccc(Cl)cc3)cc12', 3.1),
  ('CCC1C(C)(C)c2cc(C)c(C(C)=O)cc2C1(C)C (stereo not given)', 25.6),
  ('CN1CCN(C(=O)NC2CCCCC2)CC1', -8.4);

----------
The following compounds are listed with their measured growth inhibition values.
TEST_DESCRIPTION: NCI Yeast Anticancer Drug Screen. Data for the mec2-1 strain (AID 157)
TEST_CONTEXT: S. cerevisiae mec2-1 strain, at 50.0 µM, active compounds read high
About 79,000 compounds went through this panel and 15% of them were active in at least one assay; those are over-represented in the sample as a whole.
MEASURE_NAME: growth inhibition (%)

INSERT INTO measurements (compound, assay_result) VALUES
  ('C=C(C)COC(=O)Nc1cccc(Cl)c1', -4.15),
  ('O=C(Nc1ncc([N+](=O)[O-])s1)c1cc(Cl)cc(Cl)c1', 61),
  ('O=[N+]([O-])c1ccc(/C(CBr)=N/N2CCCCCC2)cc1', -16.9),
  ('NC(=O)c1ccc(I)cc1', 9.3),
  ('CCCCCCCCCCCCCCCCCC(=O)c1ccc(OC)c(OC)c1', -12.8),
  ('CC(C(=O)c1ccc(Cl)cc1)C1=NC2NN(c3ccccc3)C(=O)C2=C1C(C)C(=O)c1ccc(Cl)cc1 (stereo not drawn)', -12.3),
  ('COC1CCC(/C(C#N)=C/C2CCC(OC)C(OC)C2)CC1 (stereo not drawn)', 66.8),
  ('N=c1ccc([N+](=O)[O-])cn1O', 11.7),
  ('NC(CCC(=O)NC(CSSCCCCS(=O)O)C(=O)NCC(=O)O)C(=O)O (stereo not drawn)', -8.2),
  ('O=C(O)c1ccccc1C(=O)c1ccc(F)c2ccccc12', 26.9),
  ('CC(C)CCCC(C)C1CCC2C3CC=C4CC(OC(=O)Nc5ccc(S(=O)(=O)N6CCCCC6)cc5)CCC4(C)C3CCC12C (stereo not drawn)', 2.45),
  ('COc1ccc(C2(C)OCCC(C)O2)cc1 (stereo not drawn)', -18.1),
  ('CC1(C)N=C(/C(Cl)=[N+](/[O-])C(=O)c2ccc(F)cc2)C(C)(C)N1O', -35.3),
  ('O=C(Nc1cccc([N+](=O)[O-])c1)Nc1ccccc1F', 10),
  ('NC(CCCC(N)P(=O)(O)c1ccccc1)P(=O)(O)c1ccccc1 (stereo not drawn)', -40.5),
  ('O=S(=O)(N/N=C/c1ccncc1)c1ccccc1', 16.9),
  ('O=c1c2ccccc2c(=O)n2n1C1CCC2C1', -0.55),
  ('NC(=O)N/N=C(\Cc1nc2ccc(Cl)cc2[nH]c1=O)C(=O)Nc1ccc(Cl)cc1Cl', 11.8),
  ('CCCCC1(C=O)NC(=O)N(C)C1=O (stereo not drawn)', 2.35),
  ('CS(=O)(=O)CCCCCCCCCCS(C)(=O)=O', 2.45),
  ('O=C(NC(=O)c1ccc(Cl)c(Cl)c1)Nc1ccc(Cl)cc1', -13.8),
  ('COc1cc(CC2c3cc(OC)c(OC)cc3CC[N+]2(C)C)c(Oc2cc(CC3c4cc(OC)c(OC)cc4CC[N+]3(C)C)ccc2OC)cc1OC (stereo not drawn)', 10.1),
  ('Cc1nc(N)[nH]c(=O)c1CCCNC(=O)c1cccc([N+](=O)[O-])c1', 2.65);

----------
TEST_DESCRIPTION: NCI Yeast Anticancer Drug Screen. Data for the mlh1 rad18 strain (AID 175)
TEST_CONTEXT: S. cerevisiae mlh1 rad18 strain growth inhibition; at 50.0 µM; active compounds read high
Protocol: Growth inhibition of yeast strains with defined genetic alterations is measured as a screen for potential anti-cancer activity. Selected strains with alterations in DNA damage repair or cell cycle control were exposed to compounds and growth inhibition was measured relative to vehicle treated controls. The strain used in this assay is mlh1 rad18
Compounds without any hit were thinned out: in the full panel of roughly 79,000, 15% have a hit.
Known growth inhibition of a selection of molecules
MEASURE_NAME: growth inhibition (%)

INSERT INTO assay_data (molecule, assay_result) VALUES
  ('CSc1nc(C)c(Br)c(=O)n1C1OC(COC(C)=O)C(OC(C)=O)C(OC(C)=O)C1OC(C)=O (configuration not stated)', 1.35),
  ('CC1CCC(C(C)(C)c2ccccc2)C(=O)C1 (configuration not stated)', 15.4),
  ('CCOC(=O)COc1cc(C)c2ccc(=O)oc2c1', 29.1),
  ('Cc1ccc(/C=N/n2c(Cc3ccccc3)n[nH]c2=O)cc1', 25.6),
  ('CCN(CC)CCN(C)c1ccccc1', 0.3),
  ('NCc1ccccc1', -3.85),
  ('CC(C)=CCCC(C)C1CCC2C3CC=C4CC(O)CCC4(C)C3CCC12C (configuration not stated)', 72.3),
  ('COC(=O)/C(C#N)=C/c1ccco1', -21.6),
  ('Cn1nnc(C(=O)O)n1', -10.8),
  ('C(=C\c1ccc(OCc2ccccc2)cc1)/c1ccc(OCc2ccccc2)cc1', -26),
  ('CC1CC2=C(C(=O)c3ccccc3C2=O)C(C)O1 (configuration not stated)', 9.1),
  ('CC(C)OC(=O)/C=C/C(=O)OC(C)C (tested in a mixture with another compound)', -23.1);

----------
A collection of compounds and their measured growth inhibition
TEST_DESCRIPTION: NCI Yeast Anticancer Drug Screen. Data for the sgs1 mgt1 strain (AID 161);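 also: 0% = growth of cultures given vehicle only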
TEST_CONTEXT: S. cerevisiae sgs1 mgt1 strain, at 50.0 µM, active compounds read high
This is part of a sample that, as a whole, favours compounds with a hit. Of some 79,000 tested, about 15% had one in any assay.
MEASURE_NAME: growth inhibition (%)

INSERT INTO measurements (compound, assay_result) VALUES
  ('Nc1ccc([N+](=O)[O-])c2ccccc12', 12.7),
  ('c1ccc(C(Sc2ncnc3nc[nH]c23)c2ccccc2)cc1', -3.85),
  ('Oc1cc2c(cc1O)C1c3ccc(O)c(O)c3OCC1(O)C2 (stereo not drawn)', 22.7),
  ('CCOC(=O)C1=[N+]([O-])OC2=C(O)CCCC21 (stereo not drawn)', 9.05),
  ('CC1CCC/C1=C(/I)C(=O)c1ccccc1 (stereo not drawn)', 24.6),
  ('CN(C)c1ccc(Cc2c[nH]c3ccccc3c2=O)cc1', 18.8),
  ('COc1ccccc1NC(=S)N/N=C/c1cccc(C)n1', 20.1),
  ('COc1ccc(CNc2cnc3cc(N)ccc3n2)cc1OC', -37.5),
  ('CCC(CC)(Cc1ccccc1)C(=O)O', 12.7),
  ('COc1cc2c(cc1OC)-c1c(C)c3ccc(OC)c(NCCO)c3c[n+]1CC2', -29.7),
  ('O=C1c2ccccc2C(=O)N1Cl', -37.1),
  ('COc1ccc(Cc2ccccc2)cc1', 17.4),
  ('Cn1c(=O)cc2[nH]c3ccccc3n2c1=O', -10);
